system: PPARg:RXRa 270nM:90nM, anti-RXR (NR concentration 270 nM, RXRa partner concentration 90 nM); assay: PBM binding z-score (relative to random genomic background probes); higher = stronger binding; sequences stand for … in GC…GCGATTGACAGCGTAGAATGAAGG
measured-quantity: PBM binding z-score

| macromolecule-sequence | number |
| --- | --- |
| CGAACTAGGTCAGAACAAGACAGTGAAGGATGAT | 4.3 |
| CGACCTAGGTCATCCAGGACAGTGAATACATTGA | 3.43 |
| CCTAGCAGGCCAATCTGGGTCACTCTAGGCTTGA | 1.75 |
| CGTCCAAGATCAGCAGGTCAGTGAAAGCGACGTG | 0.227 |
| CCTTAAGGGTCACTGACAGGTTATAGCATTTGGA | 6.19 |
| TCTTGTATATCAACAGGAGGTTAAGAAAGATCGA | 1.5 |
| TCATATAGGTAAACAGGTGAAAGTGCGTAAGTTA | 5.09 |
| ACTTACGGGTCAACGAGGTTATAGTACGCGTATA | 5.72 |
| CCAAGCAGGCCAGGGTCACTCAAGCATTTCGCTT | 1.81 |
| ATCTCGAGGTAAAGTTCAGTGAAAGATCGATAGA | 3.53 |
| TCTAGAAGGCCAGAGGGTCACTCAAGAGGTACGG | 2.98 |
| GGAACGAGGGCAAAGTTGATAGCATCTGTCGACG | 7.24 |
| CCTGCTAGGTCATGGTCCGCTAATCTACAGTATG | 2.78 |
| TCTTGTAAATCAAAGGTTAAGAAAGCCGAAGCCT | 5.39 |
| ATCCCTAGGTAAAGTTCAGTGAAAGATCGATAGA | 3.48 |
| GCTCGGCGGACAAGGTCAGAGCTTTGTCCGTAGA | 0.435 |
| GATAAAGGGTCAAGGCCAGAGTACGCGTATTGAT | 6.32 |

* * *

tested on: PPARg:RXRa 90nM:30nM, anti-RXR (NR concentration 90 nM, RXRa partner concentration 30 nM); assay: PBM binding z-score (relative to random genomic background probes); higher = stronger binding; sequences stand for … in GC…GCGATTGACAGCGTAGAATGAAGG
Parameter: PBM binding z-score. Scope: all listed entries.

| macromolecule-sequence | system-under-test | PBM binding z-score |
| --- | --- | --- |
| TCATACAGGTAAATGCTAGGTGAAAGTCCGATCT | PPARg:RXRa 90nM:30nM, anti-RXR (NR concentration 90 nM, RXRa partner concentration 30 nM) | 2.83 |
| CAAACTAGGTCAAAGATCAAAGTCGAGCCAACCA | PPARg:RXRa 90nM:30nM, anti-RXR (NR concentration 90 nM, RXRa partner concentration 30 nM) | 10.6 |
| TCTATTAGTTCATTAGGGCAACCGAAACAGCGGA | PPARg:RXRa 90nM:30nM, anti-RXR (NR concentration 90 nM, RXRa partner concentration 30 nM) | 3.34 |
| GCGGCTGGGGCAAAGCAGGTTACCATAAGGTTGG | PPARg:RXRa 90nM:30nM, anti-RXR (NR concentration 90 nM, RXRa partner concentration 30 nM) | -0.577 |
| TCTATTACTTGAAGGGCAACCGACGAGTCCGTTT | PPARg:RXRa 90nM:30nM, anti-RXR (NR concentration 90 nM, RXRa partner concentration 30 nM) | 3.26 |
| TCTGTTAGGTCAACGATGGTCAGCTAATCTGCTA | PPARg:RXRa 90nM:30nM, anti-RXR (NR concentration 90 nM, RXRa partner concentration 30 nM) | 3.12 |
| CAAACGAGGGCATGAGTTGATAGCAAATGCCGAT | PPARg:RXRa 90nM:30nM, anti-RXR (NR concentration 90 nM, RXRa partner concentration 30 nM) | 1.12 |
| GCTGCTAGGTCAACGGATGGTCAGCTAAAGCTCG | PPARg:RXRa 90nM:30nM, anti-RXR (NR concentration 90 nM, RXRa partner concentration 30 nM) | 2.06 |
| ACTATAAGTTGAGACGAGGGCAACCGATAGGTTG | PPARg:RXRa 90nM:30nM, anti-RXR (NR concentration 90 nM, RXRa partner concentration 30 nM) | 0.578 |
| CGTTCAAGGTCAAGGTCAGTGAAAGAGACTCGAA | PPARg:RXRa 90nM:30nM, anti-RXR (NR concentration 90 nM, RXRa partner concentration 30 nM) | 5.56 |
| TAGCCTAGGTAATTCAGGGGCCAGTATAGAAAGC | PPARg:RXRa 90nM:30nM, anti-RXR (NR concentration 90 nM, RXRa partner concentration 30 nM) | -0.103 |
| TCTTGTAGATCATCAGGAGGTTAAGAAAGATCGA | PPARg:RXRa 90nM:30nM, anti-RXR (NR concentration 90 nM, RXRa partner concentration 30 nM) | 1.84 |
| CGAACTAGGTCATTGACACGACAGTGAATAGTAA | PPARg:RXRa 90nM:30nM, anti-RXR (NR concentration 90 nM, RXRa partner concentration 30 nM) | 5.54 |
| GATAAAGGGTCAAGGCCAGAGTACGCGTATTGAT | PPARg:RXRa 90nM:30nM, anti-RXR (NR concentration 90 nM, RXRa partner concentration 30 nM) | 5.23 |
| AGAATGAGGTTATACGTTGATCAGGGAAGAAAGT | PPARg:RXRa 90nM:30nM, anti-RXR (NR concentration 90 nM, RXRa partner concentration 30 nM) | 1.78 |
| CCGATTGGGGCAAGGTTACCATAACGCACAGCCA | PPARg:RXRa 90nM:30nM, anti-RXR (NR concentration 90 nM, RXRa partner concentration 30 nM) | 0.943 |
| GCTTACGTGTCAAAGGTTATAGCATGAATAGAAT | PPARg:RXRa 90nM:30nM, anti-RXR (NR concentration 90 nM, RXRa partner concentration 30 nM) | 9.07 |
| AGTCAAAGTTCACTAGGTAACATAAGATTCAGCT | PPARg:RXRa 90nM:30nM, anti-RXR (NR concentration 90 nM, RXRa partner concentration 30 nM) | 5.79 |
| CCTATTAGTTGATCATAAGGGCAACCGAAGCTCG | PPARg:RXRa 90nM:30nM, anti-RXR (NR concentration 90 nM, RXRa partner concentration 30 nM) | 0.185 |
| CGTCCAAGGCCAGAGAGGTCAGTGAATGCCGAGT | PPARg:RXRa 90nM:30nM, anti-RXR (NR concentration 90 nM, RXRa partner concentration 30 nM) | -0.148 |
| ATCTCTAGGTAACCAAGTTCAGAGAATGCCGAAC | PPARg:RXRa 90nM:30nM, anti-RXR (NR concentration 90 nM, RXRa partner concentration 30 nM) | 0.52 |
| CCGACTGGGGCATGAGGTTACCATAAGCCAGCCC | PPARg:RXRa 90nM:30nM, anti-RXR (NR concentration 90 nM, RXRa partner concentration 30 nM) | 1.62 |
| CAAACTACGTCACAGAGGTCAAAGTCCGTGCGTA | PPARg:RXRa 90nM:30nM, anti-RXR (NR concentration 90 nM, RXRa partner concentration 30 nM) | 3.91 |
| ACAATGAGGTTAAGATCAGGGAAACAGAATACAT | PPARg:RXRa 90nM:30nM, anti-RXR (NR concentration 90 nM, RXRa partner concentration 30 nM) | 1.24 |
| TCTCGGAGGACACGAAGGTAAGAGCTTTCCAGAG | PPARg:RXRa 90nM:30nM, anti-RXR (NR concentration 90 nM, RXRa partner concentration 30 nM) | 1.39 |
| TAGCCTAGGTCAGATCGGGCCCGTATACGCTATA | PPARg:RXRa 90nM:30nM, anti-RXR (NR concentration 90 nM, RXRa partner concentration 30 nM) | 0.0407 |
| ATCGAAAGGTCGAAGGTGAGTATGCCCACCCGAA | PPARg:RXRa 90nM:30nM, anti-RXR (NR concentration 90 nM, RXRa partner concentration 30 nM) | 3.81 |
| ATCTCTAGGTAAGACTAAGTTCAGTGAAGAACGC | PPARg:RXRa 90nM:30nM, anti-RXR (NR concentration 90 nM, RXRa partner concentration 30 nM) | 1.75 |
| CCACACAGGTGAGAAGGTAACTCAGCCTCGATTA | PPARg:RXRa 90nM:30nM, anti-RXR (NR concentration 90 nM, RXRa partner concentration 30 nM) | 0.451 |
| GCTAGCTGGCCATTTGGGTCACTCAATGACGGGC | PPARg:RXRa 90nM:30nM, anti-RXR (NR concentration 90 nM, RXRa partner concentration 30 nM) | -0.612 |
| CCTTACGGGTCACTCCAGGGTATAGCATCGGAGT | PPARg:RXRa 90nM:30nM, anti-RXR (NR concentration 90 nM, RXRa partner concentration 30 nM) | 2.52 |
| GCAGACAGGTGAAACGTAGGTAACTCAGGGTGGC | PPARg:RXRa 90nM:30nM, anti-RXR (NR concentration 90 nM, RXRa partner concentration 30 nM) | -0.0243 |
| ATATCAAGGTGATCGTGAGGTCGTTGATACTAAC | PPARg:RXRa 90nM:30nM, anti-RXR (NR concentration 90 nM, RXRa partner concentration 30 nM) | 0.846 |
| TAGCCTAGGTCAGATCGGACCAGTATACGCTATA | PPARg:RXRa 90nM:30nM, anti-RXR (NR concentration 90 nM, RXRa partner concentration 30 nM) | 0.213 |
| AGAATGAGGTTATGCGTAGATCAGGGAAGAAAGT | PPARg:RXRa 90nM:30nM, anti-RXR (NR concentration 90 nM, RXRa partner concentration 30 nM) | 1.12 |
| CGAACGAGGGGATGAGTTGATAGCAAATGCCGAT | PPARg:RXRa 90nM:30nM, anti-RXR (NR concentration 90 nM, RXRa partner concentration 30 nM) | -0.23 |
| ACTATTAGTTGACTTAGGGCAACGGATACGACGC | PPARg:RXRa 90nM:30nM, anti-RXR (NR concentration 90 nM, RXRa partner concentration 30 nM) | 0.227 |
| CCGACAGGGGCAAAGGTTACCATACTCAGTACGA | PPARg:RXRa 90nM:30nM, anti-RXR (NR concentration 90 nM, RXRa partner concentration 30 nM) | 7.95 |
| CATACAGCGTCAGCTAGGCCAGAGTAGGGACGGC | PPARg:RXRa 90nM:30nM, anti-RXR (NR concentration 90 nM, RXRa partner concentration 30 nM) | -0.884 |
| ATCGAAAGGTCGCGAGGTGAGTATACAGAAAGGC | PPARg:RXRa 90nM:30nM, anti-RXR (NR concentration 90 nM, RXRa partner concentration 30 nM) | 3.56 |
| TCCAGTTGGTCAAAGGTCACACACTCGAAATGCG | PPARg:RXRa 90nM:30nM, anti-RXR (NR concentration 90 nM, RXRa partner concentration 30 nM) | 10.3 |
| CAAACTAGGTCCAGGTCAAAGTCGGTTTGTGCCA | PPARg:RXRa 90nM:30nM, anti-RXR (NR concentration 90 nM, RXRa partner concentration 30 nM) | 2.59 |
